Record form. Attribute: Percent Effect. Fill in for each entry.
# experimental_system: Ubiquitin-activating enzyme e1, putative (Leishmania donovani (strain BPK282A1)) (UniProt E9BSI1)
# Sequence (E9BSI1 as listed by the source): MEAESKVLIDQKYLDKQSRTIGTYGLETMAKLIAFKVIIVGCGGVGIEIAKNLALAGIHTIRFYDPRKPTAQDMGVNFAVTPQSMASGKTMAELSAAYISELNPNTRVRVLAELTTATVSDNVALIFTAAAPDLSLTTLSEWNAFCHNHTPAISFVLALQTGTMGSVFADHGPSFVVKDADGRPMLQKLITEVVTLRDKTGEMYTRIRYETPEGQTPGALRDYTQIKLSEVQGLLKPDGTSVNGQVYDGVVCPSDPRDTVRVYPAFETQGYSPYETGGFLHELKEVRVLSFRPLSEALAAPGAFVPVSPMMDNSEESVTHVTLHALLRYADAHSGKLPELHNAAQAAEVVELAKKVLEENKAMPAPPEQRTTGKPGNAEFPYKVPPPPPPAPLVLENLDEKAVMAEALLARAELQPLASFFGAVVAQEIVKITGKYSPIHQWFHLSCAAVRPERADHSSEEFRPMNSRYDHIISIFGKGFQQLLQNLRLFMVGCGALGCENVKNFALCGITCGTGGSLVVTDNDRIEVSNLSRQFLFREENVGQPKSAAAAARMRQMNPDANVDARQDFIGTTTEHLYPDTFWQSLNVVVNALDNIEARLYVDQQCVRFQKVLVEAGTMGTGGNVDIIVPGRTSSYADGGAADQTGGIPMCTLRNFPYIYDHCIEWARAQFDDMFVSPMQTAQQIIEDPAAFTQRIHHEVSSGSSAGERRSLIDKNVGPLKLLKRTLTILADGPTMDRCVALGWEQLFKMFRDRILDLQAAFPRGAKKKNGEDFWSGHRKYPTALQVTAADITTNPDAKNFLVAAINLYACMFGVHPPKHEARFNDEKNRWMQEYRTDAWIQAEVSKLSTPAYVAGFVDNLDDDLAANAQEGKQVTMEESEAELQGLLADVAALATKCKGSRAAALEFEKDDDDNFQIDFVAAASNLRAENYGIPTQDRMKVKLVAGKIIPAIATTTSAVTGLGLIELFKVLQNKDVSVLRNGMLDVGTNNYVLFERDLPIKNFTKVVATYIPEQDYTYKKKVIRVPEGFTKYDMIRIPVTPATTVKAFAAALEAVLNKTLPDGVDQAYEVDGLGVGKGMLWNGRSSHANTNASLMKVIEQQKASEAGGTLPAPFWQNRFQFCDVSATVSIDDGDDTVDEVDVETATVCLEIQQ
# assay_name: Leishmania donovani Ubiquitin Activating Enzyme (LdE1)
# Format: functional
# Set-up: scale not given: direction of the effect not stated beside the values
# cond: 30 µM
Entries with a potency or affinity are not part of this list.
Numbers only, in %.

O=C(Cc1ccc2c(c1)OCCO2)N1CCCC(n2ccnc2)C1 (configuration not stated) = 5.2

Hey, can you go through the list below and give me Percent Effect for every item?
1. Cn1cccc1CNC(=O)CCCc1nnc2ccccn12
2. COCCC(=O)N1C[C@@H]2COC[C@]2(COCc2cccnc2)C1
3. CN(C(=O)C1CCCCC1)[C@@H]1CCC[C@@H](N2CCOCC2)[C@@H]1O
4. Cc1ccc(NC2CCN(C(=O)CCNS(C)(=O)=O)CC2)nn1
5. CN(C)CCN(Cc1ccc(Cl)cc1)C(=O)c1cc[nH]n1

1. 6.67
2. 13
3. 4.05
4. -2.7
5. 20.8

Please report Percent Effect for every entry that follows.
1. CC(C)C(=O)NC1CCN(Cc2cccc3c2OCCO3)CC1
2. Cc1cnc(NC(=O)c2ccc(-n3ncc(C#N)c3N)cc2)s1
3. CC(C)c1nnc(NC(=O)NCc2ccnc(N(C)C)c2)s1

1. -1.27
2. 7.59
3. 8.86

// each molecule listed below needs its Percent Effect
1. CC(C)COC(C)C(=O)NCc1ccc(OC(C)C)nc1 (configuration not stated)
2. Cc1ccccc1C(=O)NCc1ccc(N2CCNC(=O)C2)cc1
3. CCC(C)CNc1ccc2oc(COC)nc2c1 (configuration not stated)

15.6
5.41
32.4

----------
# experimental_system: Proteasome subunit beta (Trypanosoma cruzi) (UniProt O96673)
# Sequence (whole entry): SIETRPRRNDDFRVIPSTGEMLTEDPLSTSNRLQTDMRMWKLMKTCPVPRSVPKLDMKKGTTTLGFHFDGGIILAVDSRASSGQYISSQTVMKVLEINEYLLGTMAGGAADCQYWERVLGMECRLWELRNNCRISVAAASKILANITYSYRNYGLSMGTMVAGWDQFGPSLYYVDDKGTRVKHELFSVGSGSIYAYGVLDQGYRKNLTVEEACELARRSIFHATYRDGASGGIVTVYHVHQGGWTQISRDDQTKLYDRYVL
# assay_name: Trypanosoma cruzi proteasome chymotrypsin-like activity (TcProtChymo) assay. Further: in the data most compounds retested in dose-response had high values.
# Type: functional
# Design: scale not given: direction of the effect not stated beside the values
# cond: 9.37 µM
Each entry gets no (0) if its Percent Effect stays under 10%, and yes (1) if its Percent Effect is 10% or above.

Study these solved cases before continuing.
CCC(=O)N1CCc2[nH]cnc2C12CCN(C(=O)c1snnc1C)CC2 = yes (1)
Cc1ccc(CN2CC[C@H]3OCC[C@@H](C(=O)NC4CC4)[C@@H]3C2)o1 = no (0)
CN1[C@H](Cn2cncn2)C[C@@H]2CN(Cc3cccc(C#N)c3)CC[C@@H]21 = yes (1)
Cc1noc(C)c1CN1CC[C@H]2OCC[C@@H](C(=O)N3CCCO3)[C@@H]2C1 = yes (1)

Next item in the queue.
Is reported Percent Effect greater than or equal to 10% here: Cn1cc(N2CCC3(CCN(Cc4nccs4)C3)C2=O)cn1 (stereo unspecified)
yes (1)

----------
Assign Percent Effect to each entry below.
# experimental_system: Tyrosyl-tRNA synthetase, putative (Trypanosoma cruzi (strain CL Brener))
# assay_name: Trypanosoma cruzi tyrosyl tRNA synthetase (TcYRS) SOP
# Format: functional
# Design: scale not given: direction of the effect not stated beside the values
# cond: 30 µM

Worked set:
CCN(CC)C(=O)c1cc(C2CCCN2C)ccn1 (stereo not drawn) = 11.7%
CN(Cc1ccsc1)C(=O)c1cc2c([nH]c1=O)CCCC2=O = 18.3%
Cc1ccc2nc(C3CCN(CCO)CC3)nn2c1 = 10%

// for each compound below, give its Percent Effect
1. CC(=O)c1cn(CCC(=O)NCCC(=O)O)c2ccccc12
2. Cc1cc(-c2cnc(N3CCCC(C)C3)nc2-c2cccnc2C)on1 (stereo not drawn)
3. Cc1noc([C@H]2C[C@@H]3CCN(C(=O)C4CCOCC4)C[C@H]3O2)n1
4. Cc1nc(CN(C)C2CCN(CC3CCCCC3)C2)no1 (stereo not drawn)
5. Cc1ccc(C)c(-c2csc(N)c2C#N)c1

1: 17.9%; 2: -3.9%; 3: 5.13%; 4: 23.2%; 5: -12.8%

Reference for the values: ChEMBL document CHEMBL3988442
